# Tested on: Cullin-3 (CUL3) neddylation
# METHOD DESCRIPTION: AlphaLISA assay for Cullin-3 (CUL3) neddylation in TF 1 cells
# Type: cell-based
# TEST PARAMETERS: Homo sapiens, TF-1, 3 h, 3 hours treatment
pIC50: −log10 of the molar value.
ASSAY ENDPOINT: pIC50

compound=CCN1C(=O)[C@H](NC(=O)c2cccc(C(F)(F)F)c2)[C@H](c2ccc(F)cc2)c2c(C(=O)N3[C@H](C#N)C[C@@H]4C[C@@H]43)nn(-c3ccccc3)c21 result="< 6.00"
compound=CCN1C(=O)[C@@H](NC(=O)c2cccc(C(F)(F)F)c2)[C@@H](c2ccc(F)cc2)c2c(C(=O)N3CCC[C@H]3C#N)nn(-c3cccc(OCCN4CCOCC4)c3)c21 result="≥ 7.00"
compound="CCN1C(=O)[C@H](NC(=O)c2cccc(C(F)(F)F)c2)[C@H](c2ccc(F)cc2)c2c(C(=O)N(CC#N)CCC(=O)OC)nn(-c3ccccc3)c21 (stereo in doubt)" result="< 6.00"
